This collection of values is drawn from patent US20190367619A1.

# Measured Target: T1, human galectin-10-His (human)
# T1 construct: The last M of the tag may be Met1 of galectin-10; also called humanGal10-His; hGal10
# T1 chain: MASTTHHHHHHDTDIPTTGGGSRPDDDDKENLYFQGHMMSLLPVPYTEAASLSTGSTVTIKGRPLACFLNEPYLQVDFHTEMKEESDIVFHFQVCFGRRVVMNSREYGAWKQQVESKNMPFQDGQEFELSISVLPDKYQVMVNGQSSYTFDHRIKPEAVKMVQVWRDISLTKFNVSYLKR
# Assay Procedure: SPR Biacore T3000, scFv-human Fc captured
Measured Metric: kon (M⁻¹ s⁻¹)
Hi! Could you send only the number? It should be in M⁻¹ s⁻¹, unit omitted.

Given 10B02 scFv-human Fc (Fc fusion, also called 010B02; not shown: CH2-CH3 constant domains of human IgG1 (pUPEX50 scFv-Fc fusion vector)) scFv: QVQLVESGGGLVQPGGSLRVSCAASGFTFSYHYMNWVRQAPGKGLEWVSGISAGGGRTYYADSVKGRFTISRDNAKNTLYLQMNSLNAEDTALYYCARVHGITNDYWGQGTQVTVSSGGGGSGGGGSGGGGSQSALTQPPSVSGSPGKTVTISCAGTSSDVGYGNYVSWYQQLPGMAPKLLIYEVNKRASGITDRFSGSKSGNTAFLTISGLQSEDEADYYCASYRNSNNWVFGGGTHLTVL , state its recorded kon.
500000

How about this binder: 10A06 scFv-human Fc (Fc fusion, also called 010A06; not shown: CH2-CH3 constant domains of human IgG1 (pUPEX50 scFv-Fc fusion vector)) scFv: QVQLVESGGGLVQPGGSLRLSCAASGFTFGNYDMSWVRQAPGKGPEWVSDINSGGGSTYYADSVKGRFTISRDNAKNSLLLQMNSLKPEDTAVYYCATGYTGYYYWGQGTQVTVSSGGGGSGGGGSGGGGSQTVVTQEPSLSVSPGGTVTLTCGLSSGSVTSSNYPAWYQQTPGQAPRALIYSINSRHSGVPDRFSGSISGNKAALTITGAQAEDEADYYCTLYMGTGSNNVVFGGGTHLTVL
910000

How about this binder: 11F02 scFv-human Fc (Fc fusion, also called 011F02; not shown: CH2-CH3 constant domains of human IgG1 (pUPEX50 scFv-Fc fusion vector)) scFv: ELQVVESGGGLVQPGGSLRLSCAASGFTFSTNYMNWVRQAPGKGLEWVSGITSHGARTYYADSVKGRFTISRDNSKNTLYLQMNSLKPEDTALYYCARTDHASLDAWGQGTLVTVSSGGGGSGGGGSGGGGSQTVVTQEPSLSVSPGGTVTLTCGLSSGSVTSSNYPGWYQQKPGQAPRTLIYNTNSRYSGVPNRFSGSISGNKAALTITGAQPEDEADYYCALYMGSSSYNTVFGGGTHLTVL
370000

How about this binder: 7B07 scFv-human Fc (Fc fusion, also called 007B07; not shown: CH2-CH3 constant domains of human IgG1 (pUPEX50 scFv-Fc fusion vector)) scFv: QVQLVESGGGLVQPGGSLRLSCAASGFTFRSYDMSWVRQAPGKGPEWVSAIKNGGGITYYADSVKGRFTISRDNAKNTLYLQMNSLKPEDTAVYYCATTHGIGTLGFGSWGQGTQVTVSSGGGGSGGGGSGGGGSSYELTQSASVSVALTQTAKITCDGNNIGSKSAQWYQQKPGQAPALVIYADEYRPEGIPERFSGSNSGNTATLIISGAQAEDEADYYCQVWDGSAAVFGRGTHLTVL
1.5e+06
